Consider the following compounds and their measured MIC readings.
System: Staphylococcus aureus
Assay: Antibacterial activity against methicillin-resistant, MLS-resistant (constitutive) Staphylococcus aureus PU 20 by broth microdilution method
Type: functional
propertyName: MIC

compound	propertyName	obsValue
CC[C@H]1OC(=O)[C@H](C)[C@@H](OC(=O)Cc2ccccn2)[C@H](C)[C@@H](O[C@@H]2O[C@H](C)C[C@H](N(C)C)[C@H]2O)[C@](C)(OC)C[C@@H](C)/C(=N\OC/C=C/c2cnc3ccccc3c2)[C@H](C)[C@H]2OC(=O)O[C@@]21C	MIC	> 256 µg/mL
CC[C@H]1OC(=O)[C@H](C)[C@@H](O[C@H]2C[C@@](C)(OC)[C@@H](O)[C@H](C)O2)[C@H](C)[C@@H](O[C@@H]2O[C@H](C)C[C@H](N(C)C)[C@H]2O)[C@](C)(OC)C[C@@H](C)C(=O)[C@H](C)[C@@H](O)[C@]1(C)O [CLARITHROMYCIN]	MIC	> 256 µg/mL
CC[C@H]1OC(=O)[C@H](C)[C@@H](OC(=O)Cc2ccccn2)[C@H](C)[C@@H](O[C@@H]2O[C@H](C)C[C@H](N(C)C)[C@H]2O)[C@](C)(OC)C[C@@H](C)/C(=N\OCC#Cc2cncc3ccccc23)[C@H](C)[C@H]2OC(=O)O[C@@]21C	MIC	> 256 µg/mL
CC[C@H]1OC(=O)[C@H](C)[C@@H](O)[C@H](C)[C@@H](O[C@@H]2O[C@H](C)C[C@H](N(C)C)[C@H]2O)[C@](C)(OC)C[C@@H](C)/C(=N\OCCCc2cncc3ccccc23)[C@H](C)[C@H]2OC(=O)O[C@@]21C	MIC	> 256 µg/mL
CC[C@H]1OC(=O)[C@H](C)[C@@H](O/C=C\Cc2cncnc2)[C@H](C)[C@@H](O[C@@H]2O[C@H](C)C[C@H](N(C)C)[C@H]2O)[C@](C)(OC)C[C@@H](C)/C(=N\OC/C=C/c2cnc3ccccc3c2)[C@H](C)[C@H]2OC(=O)O[C@@]21C	MIC	> 256 µg/mL
CC[C@H]1OC(=O)[C@H](C)[C@@H](OC(=O)Cc2cccnc2)[C@H](C)[C@@H](O[C@@H]2O[C@H](C)C[C@H](N(C)C)[C@H]2O)[C@](C)(OC)C[C@@H](C)/C(=N\OC/C=C/c2cnc3ccccc3c2)[C@H](C)[C@H]2OC(=O)O[C@@]21C	MIC	> 256 µg/mL
CC[C@H]1OC(=O)[C@H](C)C(=O)[C@H](C)[C@@H](O[C@@H]2O[C@H](C)C[C@H](N(C)C)[C@H]2O)[C@](C)(OC)C[C@@H](C)C(=O)[C@H](C)[C@H]2N(CCCCn3cnc(-c4cccnc4)c3)C(=O)O[C@]12C [TELITHROMYCIN]	MIC	> 256 µg/mL
CC[C@H]1OC(=O)[C@H](C)[C@@H](O)[C@H](C)[C@@H](O[C@@H]2O[C@H](C)C[C@H](N(C)C)[C@H]2O)[C@](C)(OC)C[C@@H](C)/C(=N\OC/C=C/c2cnc3ccccc3c2)[C@H](C)[C@H]2OC(=O)O[C@@]21C	MIC	> 256 µg/mL
CC[C@H]1OC(=O)[C@H](C)[C@@H](OC(=O)Cc2cccnc2)[C@H](C)[C@@H](O[C@@H]2O[C@H](C)C[C@H](N(C)C)[C@H]2O)[C@](C)(OC)C[C@@H](C)/C(=N\OCC#Cc2cncc3ccccc23)[C@H](C)[C@H]2OC(=O)O[C@@]21C	MIC	> 256 µg/mL

The measured values listed here are drawn from ChEMBL document CHEMBL2331130.
